The entries below come with measured OD450 values attached.
molecular target: T1, human MSLN-R2-his protein (human, UniProt Q13421 391-486); assay: ELISA on coated antigen, antibody 100 nM
T1 construct: Self-made in HEK293E cells; also called human MSLN-R2 protein; hMSLN-R2-his; not shown: His tag
T1 sequence (Q13421 other isoform, or with tags, fused parts or gaps): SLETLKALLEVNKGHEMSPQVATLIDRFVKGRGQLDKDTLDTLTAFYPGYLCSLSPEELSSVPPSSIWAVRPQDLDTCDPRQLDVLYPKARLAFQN
assay endpoint: OD450 (OD450)

S009-F2.13.3 (antibody, human IgG1, kappa, V domains shown, Human-murine chimeric antibody: murine VH/VL on human IgG1 heavy and kappa light constant regions) VH: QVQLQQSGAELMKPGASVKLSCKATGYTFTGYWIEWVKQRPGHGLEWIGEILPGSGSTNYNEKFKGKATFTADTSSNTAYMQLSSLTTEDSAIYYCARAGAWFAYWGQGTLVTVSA VL: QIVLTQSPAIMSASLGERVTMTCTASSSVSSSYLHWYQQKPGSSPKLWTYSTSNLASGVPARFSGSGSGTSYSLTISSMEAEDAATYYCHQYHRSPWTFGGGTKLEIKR; 0.07
S009-F2.58.8 (antibody, human IgG1, kappa, V domains shown, Human-murine chimeric antibody: murine VH/VL on human IgG1 heavy and kappa light constant regions) VH: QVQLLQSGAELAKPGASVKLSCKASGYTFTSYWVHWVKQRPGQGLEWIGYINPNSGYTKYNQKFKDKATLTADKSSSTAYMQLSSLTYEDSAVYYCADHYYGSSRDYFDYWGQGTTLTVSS VL: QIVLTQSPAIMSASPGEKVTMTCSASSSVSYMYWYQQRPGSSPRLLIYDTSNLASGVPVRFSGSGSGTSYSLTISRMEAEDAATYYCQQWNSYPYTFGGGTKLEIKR; 2.63
S009-F2.39.3 (antibody, human IgG1, kappa, V domains shown, Human-murine chimeric antibody: murine VH/VL on human IgG1 heavy and kappa light constant regions) VH: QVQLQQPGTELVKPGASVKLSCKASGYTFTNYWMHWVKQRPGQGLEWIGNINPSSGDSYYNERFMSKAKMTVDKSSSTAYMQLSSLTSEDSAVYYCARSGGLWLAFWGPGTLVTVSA VL: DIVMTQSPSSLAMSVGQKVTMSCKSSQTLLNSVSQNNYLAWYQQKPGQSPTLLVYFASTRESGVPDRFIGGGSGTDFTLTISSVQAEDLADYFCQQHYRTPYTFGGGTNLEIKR; 0.06
